Record form. Attribute: pIC50. Fill in for each entry.
system: Prostaglandin G/H synthase 2 (Homo sapiens, UniProt P35354)
Sequence (P35354 whole entry): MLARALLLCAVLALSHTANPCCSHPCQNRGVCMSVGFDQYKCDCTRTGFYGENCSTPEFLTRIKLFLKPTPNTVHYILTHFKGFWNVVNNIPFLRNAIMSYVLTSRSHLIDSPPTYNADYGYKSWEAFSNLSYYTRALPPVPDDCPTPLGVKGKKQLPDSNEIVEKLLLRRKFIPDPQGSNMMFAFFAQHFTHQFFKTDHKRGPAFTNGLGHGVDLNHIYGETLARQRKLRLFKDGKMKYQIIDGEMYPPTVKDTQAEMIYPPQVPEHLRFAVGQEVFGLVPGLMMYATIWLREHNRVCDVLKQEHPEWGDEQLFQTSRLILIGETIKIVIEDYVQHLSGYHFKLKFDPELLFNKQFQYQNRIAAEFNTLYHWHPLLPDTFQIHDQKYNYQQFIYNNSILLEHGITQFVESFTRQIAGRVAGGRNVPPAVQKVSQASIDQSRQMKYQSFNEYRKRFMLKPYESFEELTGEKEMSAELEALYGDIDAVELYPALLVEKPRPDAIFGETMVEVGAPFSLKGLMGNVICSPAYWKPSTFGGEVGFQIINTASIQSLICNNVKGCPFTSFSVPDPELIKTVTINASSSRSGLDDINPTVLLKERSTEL
experiment.notes: In vitro inhibitory activity against prostaglandin G/H synthase 2 stably transfected in Human whole blood (HWB) cell
Format: tissue-based
Give bare numbers, as −log10 of the molar value.

Recorded pIC50, per entry:
compound	pIC50
C[C@H]1C[C@@H]1Cn1ncc(-c2ccc(S(C)(=O)=O)cc2)c(-c2ccc(F)cc2)c1=O	6.52
C[C@@H]1C[C@H]1Cn1ncc(-c2ccc(S(C)(=O)=O)cc2)c(-c2ccc(F)cc2)c1=O	5.77
CC1(Cn2ncc(-c3ccc(S(C)(=O)=O)cc3)c(-c3ccc(F)cc3)c2=O)CC1	6.15

Give one value of pIC50 per listed compound.
1. CS(=O)(=O)c1ccc(-c2cnn(Cc3nccs3)c(=O)c2-c2ccc(F)cc2)cc1
2. C[C@H]1C[C@H]1Cn1ncc(-c2ccc(S(C)(=O)=O)cc2)c(-c2ccc(F)cc2)c1=O (racemic)
3. CS(=O)(=O)c1ccc(-c2cnn(Cc3cccnc3)c(=O)c2-c2ccccc2)cc1
4. CC1(C)CC1Cn1ncc(-c2ccc(S(C)(=O)=O)cc2)c(-c2ccc(F)cc2)c1=O (racemic)
5. C[C@H]1C(Cn2ncc(-c3ccc(S(C)(=O)=O)cc3)c(-c3ccc(F)cc3)c2=O)[C@@H]1C (mixture of isomers)

5.23
5.62
5.15
6.15
6.15
